The reader will find reported Response Avg % values listed item by item below.
# System: Aedes aegypti
# test.summary: Olfactometer attraction test, treatment port vs control port, approximately 75 female mosquitoes
# Type: in vivo
# applied.conditions: no Base; Activator1 dose 500; 60 mL glass petri dish
parameter: Response Avg % (%)

INSERT INTO assay_data (molecule, study_target, parameter, reported_value) VALUES
  ('C=CSCC [ethyl vinyl sulfide]', 'Aedes aegypti', 'Response Avg %', 18.0),
  ('CSSSC [dimethyl trisulfide]', 'Aedes aegypti', 'Response Avg %', 21.0),
  ('C=CC(C)=O', 'Aedes aegypti', 'Response Avg %', 31.0),
  ('CC(C)C=O', 'Aedes aegypti', 'Response Avg %', 13.0),
  ('CO', 'Aedes aegypti', 'Response Avg %', 10.0);
